Here, each record is paired with measured Relative Affinity data.
target: T1, Insulin-like Growth Factor II (IGF-II), recombinant human (human, UniProt P01344 25-91, biotinyl group (site not stated) when immobilised for SPR; not biotinylated as SPR analyte or in ITC); experiment: SPR, steady-state KD relative to wild type domain 11
T1 construct: mature; Bought as Biotinyl-IGF-II from GroPep for immobilisation on streptavidin chips; also called IGF2; Biotinyl-IGF-II
T1 sequence (P01344 25-91): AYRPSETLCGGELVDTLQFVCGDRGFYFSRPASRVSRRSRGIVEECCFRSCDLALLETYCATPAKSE

BINDER: IGF2R domain 11 with Y at position 1544 (receptor, Secreted from Pichia pastoris; also called E1544Y) NEHDDCQVTNPSTGHLFDLSSLSGRAGFTAAYSYKGLVYMSICGENENCPPGVGACFGQTRISVGKANKRLRYVDQVLQLVYKDGSPCPSKSGLSYKSVISFVCRPEAGPTNRPMLISLDKQTCTLFFSWHTPLACEQATHHHHHH
Relative Affinity: 1.8 fold vs wild type domain 11
--
BINDER: IGF2R domain 11 with F at position 1544 (receptor, Secreted from Pichia pastoris; also called E1544F) NEHDDCQVTNPSTGHLFDLSSLSGRAGFTAAYSFKGLVYMSICGENENCPPGVGACFGQTRISVGKANKRLRYVDQVLQLVYKDGSPCPSKSGLSYKSVISFVCRPEAGPTNRPMLISLDKQTCTLFFSWHTPLACEQATHHHHHH
Relative Affinity: 1.83 fold vs wild type domain 11
--
BINDER: IGF2R domain 11 with W at position 1544 (receptor, Secreted from Pichia pastoris; also called E1544W) NEHDDCQVTNPSTGHLFDLSSLSGRAGFTAAYSWKGLVYMSICGENENCPPGVGACFGQTRISVGKANKRLRYVDQVLQLVYKDGSPCPSKSGLSYKSVISFVCRPEAGPTNRPMLISLDKQTCTLFFSWHTPLACEQATHHHHHH
Relative Affinity: 1.94 fold vs wild type domain 11
--
BINDER: IGF2R domain 11 with R at position 1544 (receptor, Secreted from Pichia pastoris; also called E1544R) NEHDDCQVTNPSTGHLFDLSSLSGRAGFTAAYSRKGLVYMSICGENENCPPGVGACFGQTRISVGKANKRLRYVDQVLQLVYKDGSPCPSKSGLSYKSVISFVCRPEAGPTNRPMLISLDKQTCTLFFSWHTPLACEQATHHHHHH
Relative Affinity: 7.33 fold vs wild type domain 11

Source: patent US20130071366A1
